Tested on: cerebellar granule neurons
Test: LK-induced death of cultured cerebellar granule neurons, viability by DAPI staining
Assay type: cell-based, rat
Details: Table 1; 25 μM in LK medium, 24 h; % of survival in control cultures in HK medium; LK alone 48%
observation_type: % Survival (%)
Numbers only; they are read as %.

{"entry_smiles": "O=C1Nc2ccccc2OC1=Cc1ccsc1", "observation_type": "% Survival", "unit_tag": "%", "quantitative_result": 81.4}

Qu. Given the entry Cc1ccc2c(c1)NC(=O)/C(=C/c1ccccn1)O2 , what % Survival was observed with cerebellar granule neurons?
Ans. 88.1

Qu. Given the entry O=C1Nc2ccccc2OC1=Cc1c[nH]c2ccccc12 , what % Survival was observed with cerebellar granule neurons?
Ans. 48.3
